# target_system: T1, mFGFR4-Histag (murine, UniProt Q03142 19-362)
# T1 construct: also called murine protein mFGFR4; murine FGF-R4
# T1 sequence (Q03142 other isoform, or with tags, fused parts or gaps): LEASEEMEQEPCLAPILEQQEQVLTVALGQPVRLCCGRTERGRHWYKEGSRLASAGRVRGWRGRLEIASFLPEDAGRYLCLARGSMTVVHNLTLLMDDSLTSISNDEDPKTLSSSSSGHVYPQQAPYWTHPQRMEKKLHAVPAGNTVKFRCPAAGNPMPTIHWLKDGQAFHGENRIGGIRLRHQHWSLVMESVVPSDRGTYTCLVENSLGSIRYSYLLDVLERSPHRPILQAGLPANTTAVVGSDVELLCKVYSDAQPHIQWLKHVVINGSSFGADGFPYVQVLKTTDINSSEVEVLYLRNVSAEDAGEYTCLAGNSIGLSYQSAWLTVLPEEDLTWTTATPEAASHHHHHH
# measurement_notes: SPR (BIAcore 3000)
reported_endpoint: koff (s⁻¹)

1. anti-FGFR4 antibody clone 33 (human IgG1 format) (antibody, V domains shown, As for clone 8: human IgG1 format from HEK293; also called antibody 33) VH: EVQLLESGGGLVQPGGSLRLSCAASGFTFSTYWMAWVRQAPGKGLEWVSVIGPSGGMTVYADSVKGRFTISRDNSKNTLYLQMNSLRAEDTAVYYCARINSGSSHFDYWGQGTLVTVSS VL: QSVLTQPPSASGTPGQGVTISCSGSSSNIGSNSVNWYQQLPGAAPKLLIYSNNLRPSGVPARFSGSKSGTSASLAISGLRSEDEADYYCAAWDDGLDAYVVFGGGTKLTVLG	0.000704
2. anti-FGFR4 antibody clone 31 (human IgG1 format) (antibody, V domains shown, As for clone 8: human IgG1 format from HEK293; also called antibody 31) VH: EVQLLESGGGLVQPGGSLRLSCAASGFTFSRYFMKWVRQAPGKGLEWVSWISPSGGLTEYADSVKGRFTISRDNSKNTLYLQMNSLRAEDTAVYYCARASYGAWLDYWGQGTLVTVSS VL: DIQMTQSPSSLSLSPGERATLSCRASQSINRNLGWYQQKPGQAPRLLIYGASTRATGIPARFTGSGSGTEFSLTISSLQSEDYAIYYCQQYDNWPIIFGQGTRLEIKG	0.0018
3. anti-FGFR4 antibody clone 8 (human IgG1 format) (antibody, V domains shown, also called antibody 8) VH: EVQLLESGGGLVQPGGSLRLSCAASGFTFSPYWMGWVRQAPGKGLEWVSVIWPSGGTTDYADSVKGRFTISRDNSKNTLYLQMNSLRAEDTAVYYCARVHPAGHNDHWGQGTLVTVSS VL: QSELTQPPSASGTPGQRVTISCSGGYSNMGSNYAHWYQQLPGTAPKLLIYNNNQRPSGVPDRFSGSKSGTSASLAISGLRSEDEADYYCAAWDDSLSGPVFGGGTKLTVLG	0.000136
4. anti-FGFR4 antibody clone 36 (human IgG1 format) (antibody, V domains shown, As for clone 8: human IgG1 format from HEK293; also called antibody 36) VH: EVQLLESGGGLVQPGGSLRLSCAASGFTFSHYWMGWVRQAPGKGLEWVSVISPSGGLTIYADSVKGRFTISRDNSKNTLYLQMNSLRAEDTAVYYCARSSGWALDAFDIWGQGTMVTVSS VL: QYELTQPPSASGTPGQRVTISCSGSSSNIGSNIVHWYQQLPGTAPKLLIYGNNQRPSGVPDRFSVSKSGSSASLAISGLQSEDEADYYCASWDDSLKAFYVFGTGTKVTVLG	0.000752

Origin of measurements: patent US20110150903A1
